# target: Human immunodeficiency virus type 1 protease (Human immunodeficiency virus 1, UniProt Q72874, V82A)
# protocol: Binding affinity to HIV1 protease V82A mutant
quantity: pKi
// pKi here means minus log10 of the molar concentration (mol/L)

Value of measured pKi for the entry CC(C)[C@H](NC(=O)N(C)Cc1ccccn1)C(=O)N[C@@H](Cc1ccccc1)[C@H](O)[C@@H](O)[C@H](Cc1ccccc1)NC(=O)[C@@H](NC(=O)N(C)Cc1ccccn1)C(C)C [A-76928] : 8.05

Value of measured pKi for the entry "CC(C)[C@H](NC(=O)N(C)Cc1ccccn1)C(=O)N[C@@H](CC1CCCCC1)[C@H](O)[C@@H](O)[C@H](CC1CCCCC1)NC(=O)[C@@H](NC(=O)N(C)Cc1ccccn1)C(C)C" : 7.92

----------
quantity: Ki (nM)
Quick note: give the figure in nM, leave out the unit.

Form: item "CC(C)[C@H](NC(=O)N(C)Cc1ccccn1)C(=O)N[C@@H](Cc1ccccc1)[C@H](O)[C@@H](O)[C@H](CC1CCCCC1)NC(=O)[C@@H](NC(=O)N(C)Cc1ccccn1)C(C)C" ; test system UniProtKB Q9YQ12; Ki: 3.2

Form: item "CC(C)[C@H](NC(=O)N(C)Cc1ccccn1)C(=O)N[C@@H](CC1CCCCC1)[C@H](O)[C@@H](O)[C@H](CC1CCCCC1)NC(=O)[C@@H](NC(=O)N(C)Cc1ccccn1)C(C)C" ; test system UniProtKB Q9YQ12; Ki: 6

Form: item "CC(C)[C@H](NC(=O)N(C)Cc1ccccn1)C(=O)N[C@@H](Cc1ccccc1)[C@H](O)[C@@H](O)[C@H](Cc1ccccc1)NC(=O)[C@@H](NC(=O)N(C)Cc1ccccn1)C(C)C" ; test system UniProtKB Q9YQ12; Ki: 1.3
